B1: ZNF263 (parent)
chain: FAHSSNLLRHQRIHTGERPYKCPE

Variants of: B1
Test: protein stability index of a GFP-peptide fusion (GPS, HEK-293T) (PSI 1-6); higher = more stable;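 also: lentivirally expressed fusions sorted by FACS into six bins by GFP to DsRed ratio, PSI derived from sequencing read proportions per bin multiplied by bin number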
Details: c terminus: a fixed tail appended
measurementKind: protein stability index
Returns: the value as a bare number; no unit string appended.

Give recorded protein stability index. FAHLSNLLRHQRIHTGERPYKCPE [S4L]
2.48

State, in one line, measured protein stability index of FAHSSNLLRHQRIHTWERPYKCPE [G16W]
1.32

Look up and report measured protein stability index for this entry: FAHSSNLLRHDRIHTGERPYKCPE [Q11D]
2.98

Supply protein stability index value. Item: FAHSSNLLRHQRIHTGERPDKCPE [Y20D]
3.46

Look up and state reported protein stability index for FAHDSNLLRHQRIHTGERPYKCPE [S4D]
2.94

Quick one: give measured protein stability index for FAHSSNLLRHQRIHTGERPYCCPE [K21C]
2.56

Supply measured protein stability index of FAHSSNLLRHQRIHTGERPCKCPE [Y20C] in your reply.
2.37

Given FAHSSNLLRHQRIHTGGRPYKCPE [E17G] , respond with its protein stability index.
1.81

Query protein stability index for FAHSSNLLRHQRIHTGERPYKCPG [E24G]
1.92

Tell me measured protein stability index for FAHSSNLLRHQRIHTGERPYKEPE [C22E] please.
3.37

Answer with reported protein stability index of FAHSSNLLRHQRIHTGERGYKCPE [P19G]
2.59

Specify protein stability index for FAHSSNLLRHQRIHTGERPYKCCE [P23C] and stop.
1.64

Respond only with protein stability index recorded for FAHSSNLLRHQRIHTGERPYKCPR [E24R]
2.15

Specify reported protein stability index for the variant shown: FAHSSNLLRHQRIHTGERPYKCKE [P23K]
2.52

For the variant FAHFSNLLRHQRIHTGERPYKCPE [S4F] , give its reported protein stability index.
2.55

Fill in protein stability index for record FAHSSHLLRHQRIHTGERPYKCPE [N6H]
2

Look up and report measured protein stability index for this entry: FAHSSNLLRHQRILTGERPYKCPE [H14L]
2.57

Look up and report measured protein stability index for this entry: FAHSSNLLRHQRIHTGERPYKHPE [C22H]
2.8

Using known records, supply protein stability index for FAHSSNLLRHQRIHTGERPYKCPV [E24V]
1.56

Using the record for FAHSQNLLRHQRIHTGERPYKCPE [S5Q] , state its measured protein stability index.
2.15

Answer with the recorded protein stability index for the variant listed here: FAHSSNLLRHQRIHTLERPYKCPE [G16L]
2.07

Indicate the recorded protein stability index value for this variant: FAHSSNLLRHQRIHTGERPYKCPK [E24K]
2.46
